All figures here come from ChEMBL document CHEMBL1129985.

system: MCF7; test: Cytotoxicity against MCF-7 cells in the absence of 1 uM E2 (estradiol); format: functional, Homo sapiens
attribute-measured: Cytotoxicity

[
  {
    "molecule": "CCCCC/C=C(\\c1ccc(O)cc1)c1ccc(OCCN2CCCC2)cc1",
    "attribute-measured": "Cytotoxicity",
    "reported-measurement": "2.9 µM"
  },
  {
    "molecule": "CCCCC/C=C(/c1ccc(O)cc1)c1ccc(OCCN(CC)CC)cc1",
    "attribute-measured": "Cytotoxicity",
    "reported-measurement": "2.9 µM"
  },
  {
    "molecule": "CC/C(=C(\\c1ccccc1)c1ccc(OCCN(C)C)cc1)c1ccccc1 [TAMOXIFEN]",
    "attribute-measured": "Cytotoxicity",
    "reported-measurement": "9.8 µM"
  },
  {
    "molecule": "CCCCCC/C=C(\\c1ccc(O)cc1)c1ccc(OCCN(CC)CC)cc1",
    "attribute-measured": "Cytotoxicity",
    "reported-measurement": "2.8 µM"
  },
  {
    "molecule": "CCCCCC=C(c1ccc(OCCN(CC)CC)cc1)c1ccc(OCCN(CC)CC)cc1",
    "attribute-measured": "Cytotoxicity",
    "reported-measurement": "2.7 µM"
  }
]

---

A collection of molecules and their measured log10(IC50)
biological target: Estrogen receptor (Homo sapiens, UniProt Q92731+P03372); conditions: mvln
attribute-measured: log10(IC50) (log10 of the value in nM)

[
  {
    "mol": "CCCCCCCC/C=C(\\c1ccc(O)cc1)c1ccc(OCCN(CC)CC)cc1",
    "system-tested": "Estrogen receptor (Homo sapiens, UniProt Q92731+P03372)",
    "log10(IC50)": 3.67
  },
  {
    "mol": "CCCC/C=C(/c1ccc(O)cc1)c1ccc(OCCN(CC)CC)cc1",
    "system-tested": "Estrogen receptor (Homo sapiens, UniProt Q92731+P03372)",
    "log10(IC50)": 2.70
  },
  {
    "mol": "CCN(CC)CCOc1ccc(/C(=C\\C(C)C)c2ccc(O)cc2)cc1",
    "system-tested": "Estrogen receptor (Homo sapiens, UniProt Q92731+P03372)",
    "log10(IC50)": 2.70
  },
  {
    "mol": "CCCCCC/C=C(/c1ccc(O)cc1)c1ccc(OCCN(CC)CC)cc1",
    "system-tested": "Estrogen receptor (Homo sapiens, UniProt Q92731+P03372)",
    "log10(IC50)": 3.28
  },
  {
    "mol": "CCCCC/C=C(\\c1ccc(O)cc1)c1ccc(OCCN(C)C)cc1",
    "system-tested": "Estrogen receptor (Homo sapiens, UniProt Q92731+P03372)",
    "log10(IC50)": 3.26
  },
  {
    "mol": "CCN(CC)CCOc1ccc(/C(=C/C(C)C)c2ccc(O)cc2)cc1",
    "system-tested": "Estrogen receptor (Homo sapiens, UniProt Q92731+P03372)",
    "log10(IC50)": 3.23
  },
  {
    "mol": "CC(C)N(CCOc1ccc(C(=C2CCCCC2)c2ccc(OCCN(C(C)C)C(C)C)cc2)cc1)C(C)C",
    "system-tested": "Estrogen receptor (Homo sapiens, UniProt Q92731+P03372)",
    "log10(IC50)": 3.32
  },
  {
    "mol": "CCCCCCCCCCCCCC/C=C(/c1ccc(O)cc1)c1ccc(OCCN(CC)CC)cc1",
    "system-tested": "Estrogen receptor (Homo sapiens, UniProt Q92731+P03372)",
    "log10(IC50)": 3.90
  },
  {
    "mol": "CCCCC/C=C(/c1ccc(O)cc1)c1ccc(OCCN(CC)CC)cc1",
    "system-tested": "Estrogen receptor (Homo sapiens, UniProt Q92731+P03372)",
    "log10(IC50)": 2.95
  },
  {
    "mol": "CCCCCCCCCCCCCC/C=C(\\c1ccc(O)cc1)c1ccc(OCCN(CC)CC)cc1",
    "system-tested": "Estrogen receptor (Homo sapiens, UniProt Q92731+P03372)",
    "log10(IC50)": 3.98
  },
  {
    "mol": "CCCCCC/C=C(\\c1ccc(O)cc1)c1ccc(OCCN(CC)CC)cc1",
    "system-tested": "Estrogen receptor (Homo sapiens, UniProt Q92731+P03372)",
    "log10(IC50)": 3.40
  },
  {
    "mol": "CCCCC/C=C(\\c1ccc(O)cc1)c1ccc(OCCN(CC)CC)cc1",
    "system-tested": "Estrogen receptor (Homo sapiens, UniProt Q92731+P03372)",
    "log10(IC50)": 3.51
  },
  {
    "mol": "CCCCC/C=C(\\c1ccc(O)cc1)c1ccc(OCCN2CCCC2)cc1",
    "system-tested": "Estrogen receptor (Homo sapiens, UniProt Q92731+P03372)",
    "log10(IC50)": 3.52
  },
  {
    "mol": "CC(C)C=C(c1ccc(OCCN(C(C)C)C(C)C)cc1)c1ccc(OCCN(C(C)C)C(C)C)cc1",
    "system-tested": "Estrogen receptor (Homo sapiens, UniProt Q92731+P03372)",
    "log10(IC50)": 3.49
  },
  {
    "mol": "CCN(CC)CCOc1ccc(/C(=C\\Cc2ccccc2)c2ccc(O)cc2)cc1",
    "system-tested": "Estrogen receptor (Homo sapiens, UniProt Q92731+P03372)",
    "log10(IC50)": 3.11
  },
  {
    "mol": "CCCCC/C=C(/c1ccc(O)cc1)c1ccc(OCCN(C)C)cc1",
    "system-tested": "Estrogen receptor (Homo sapiens, UniProt Q92731+P03372)",
    "log10(IC50)": 3.18
  },
  {
    "mol": "CCN(CC)CCOc1ccc(/C(=C/Cc2ccccc2)c2ccc(O)cc2)cc1",
    "system-tested": "Estrogen receptor (Homo sapiens, UniProt Q92731+P03372)",
    "log10(IC50)": 3.23
  },
  {
    "mol": "CCCCCC=C(c1ccc(OCCN(CC)CC)cc1)c1ccc(OCCN(CC)CC)cc1",
    "system-tested": "Estrogen receptor (Homo sapiens, UniProt Q92731+P03372)",
    "log10(IC50)": 3.78
  },
  {
    "mol": "CCCCCCCC/C=C(/c1ccc(O)cc1)c1ccc(OCCN(CC)CC)cc1",
    "system-tested": "Estrogen receptor (Homo sapiens, UniProt Q92731+P03372)",
    "log10(IC50)": 3.54
  },
  {
    "mol": "CC(C)N(CCOc1ccc(C(=C2CCCCC2)c2ccc(O)cc2)cc1)C(C)C",
    "system-tested": "Estrogen receptor (Homo sapiens, UniProt Q92731+P03372)",
    "log10(IC50)": 2.30
  },
  {
    "mol": "CCCC/C=C(\\c1ccc(O)cc1)c1ccc(OCCN(CC)CC)cc1",
    "system-tested": "Estrogen receptor (Homo sapiens, UniProt Q92731+P03372)",
    "log10(IC50)": 3.18
  },
  {
    "mol": "CCCC/C(CC)=C(/c1ccc(O)cc1)c1ccc(OCCN(CC)CC)cc1.CCCC/C(CC)=C(\\c1ccc(O)cc1)c1ccc(OCCN(CC)CC)cc1",
    "system-tested": "Estrogen receptor (Homo sapiens, UniProt Q92731+P03372)",
    "log10(IC50)": 2.18
  }
]
